Data credit: patent US9353087B2

Biological target: hERG (human ether-à-go-go-related gene) potassium channel (Homo sapiens)
Sequence (Q12809 whole entry): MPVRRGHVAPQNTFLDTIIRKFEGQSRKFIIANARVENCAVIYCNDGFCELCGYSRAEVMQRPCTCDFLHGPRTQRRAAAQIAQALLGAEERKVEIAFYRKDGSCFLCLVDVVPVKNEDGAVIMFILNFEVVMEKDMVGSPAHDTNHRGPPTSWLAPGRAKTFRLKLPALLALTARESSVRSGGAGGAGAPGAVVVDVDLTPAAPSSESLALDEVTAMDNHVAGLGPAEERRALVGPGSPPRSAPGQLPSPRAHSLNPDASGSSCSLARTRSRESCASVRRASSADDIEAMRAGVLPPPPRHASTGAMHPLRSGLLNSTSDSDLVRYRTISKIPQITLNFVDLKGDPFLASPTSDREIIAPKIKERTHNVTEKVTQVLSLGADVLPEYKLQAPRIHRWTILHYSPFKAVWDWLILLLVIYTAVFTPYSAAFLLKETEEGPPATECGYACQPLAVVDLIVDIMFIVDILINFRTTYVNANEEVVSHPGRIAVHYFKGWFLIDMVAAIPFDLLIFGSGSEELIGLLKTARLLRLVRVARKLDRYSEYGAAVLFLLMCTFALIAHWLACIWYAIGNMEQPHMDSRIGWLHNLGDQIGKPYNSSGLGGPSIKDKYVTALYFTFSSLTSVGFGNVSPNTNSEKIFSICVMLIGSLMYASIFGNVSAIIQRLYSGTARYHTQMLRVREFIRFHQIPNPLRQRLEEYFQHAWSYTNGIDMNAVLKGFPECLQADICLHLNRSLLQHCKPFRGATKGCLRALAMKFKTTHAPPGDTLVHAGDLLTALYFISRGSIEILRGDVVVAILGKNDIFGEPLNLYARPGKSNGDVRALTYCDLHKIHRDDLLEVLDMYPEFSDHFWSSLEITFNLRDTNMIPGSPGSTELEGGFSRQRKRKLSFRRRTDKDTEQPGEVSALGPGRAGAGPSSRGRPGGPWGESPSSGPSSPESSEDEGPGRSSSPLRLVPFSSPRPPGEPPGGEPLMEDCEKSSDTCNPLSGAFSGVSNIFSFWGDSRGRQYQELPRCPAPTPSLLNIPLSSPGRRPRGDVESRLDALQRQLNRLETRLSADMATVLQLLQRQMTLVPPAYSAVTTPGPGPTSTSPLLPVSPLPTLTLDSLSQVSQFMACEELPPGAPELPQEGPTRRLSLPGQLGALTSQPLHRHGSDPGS
Test: FastPatch/QPatch hERG inhibition assay in HEK293 cells
Settings: HEK293 cells stably transfected with hERG cDNA, QPatch HT, IC50 estimated from hERG inhibition data
MEASURE: pIC50
Give bare numbers, as −log10 of the molar value.

Data request: Which pIC50 value belongs to "Nc1ncnc(N2CC[C@H](O)[C@@H](N3CCC[C@@H](Nc4cc(Cl)cc(C(F)(F)F)c4)C3=O)C2)c1F" ?
Data returned: 5.03

====

Target: BTK (Homo sapiens, UniProt Q06187)
Sequence (Q06187 whole entry): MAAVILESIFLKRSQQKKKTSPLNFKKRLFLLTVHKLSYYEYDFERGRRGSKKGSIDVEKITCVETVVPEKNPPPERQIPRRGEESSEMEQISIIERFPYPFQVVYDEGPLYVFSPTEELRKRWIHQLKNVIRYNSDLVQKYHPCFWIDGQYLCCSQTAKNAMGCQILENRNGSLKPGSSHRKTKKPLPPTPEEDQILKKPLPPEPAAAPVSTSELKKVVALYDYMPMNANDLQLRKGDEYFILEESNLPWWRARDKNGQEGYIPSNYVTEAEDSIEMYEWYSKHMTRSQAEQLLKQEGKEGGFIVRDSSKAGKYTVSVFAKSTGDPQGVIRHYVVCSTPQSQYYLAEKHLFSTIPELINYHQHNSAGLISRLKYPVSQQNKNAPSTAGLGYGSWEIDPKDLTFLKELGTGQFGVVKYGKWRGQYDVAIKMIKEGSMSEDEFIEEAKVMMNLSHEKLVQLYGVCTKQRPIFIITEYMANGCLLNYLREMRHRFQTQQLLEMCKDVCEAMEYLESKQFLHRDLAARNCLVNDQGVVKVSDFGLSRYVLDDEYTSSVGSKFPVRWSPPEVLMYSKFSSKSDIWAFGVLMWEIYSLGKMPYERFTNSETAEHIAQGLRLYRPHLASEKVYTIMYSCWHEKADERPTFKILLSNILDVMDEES
MEASURE: pIC50
Give bare numbers, as −log10 of the molar value.

Data request: So what's the measured pIC50 for this one? "Nc1ncnc(N2CC[C@H](O)[C@@H](N3CCC[C@@H](Nc4cc(Cl)cc(C(F)(F)F)c4)C3=O)C2)c1F"
Data returned: 8.71
